Molecular target: Glutamate NMDA receptor; Grin1/Grin2b (Rattus norvegicus) (UniProt P35439+Q00960)
Experiment: Potentiation of rat recombinant GluN1/GluN2B expressed in Xenopus laevis oocytes assessed as increase in glutamate/glycine-induced current response at 30 uM by two-electrode voltage clamp technique relative to control
Format: cell-based
Label class 1 when Activity is strictly below 80%; otherwise label class 0.

[ask] Is 80% strictly greater than the compound's reported Activity? compound: COC(=O)c1ccc(C2C(C(=O)C(C)C)=C(O)C(=O)N2CCc2c[nH]c3ccccc23)cc1 (configuration not stated)
[reply] class 0

[ask] Is 80% strictly greater than the compound's reported Activity? compound: COC(=O)c1ccc(C2C(C(=O)c3cccnc3)=C(O)C(=O)N2CCc2c[nH]c3ccc(OC)cc23)cc1 (configuration not stated)
[reply] class 0

[ask] Is 80% strictly greater than the compound's reported Activity? compound: COC(=O)c1ccc(C2C(C(=O)c3cccc(F)c3)=C(O)C(=O)N2CCc2c[nH]c3ccccc23)cc1 (configuration not stated)
[reply] class 0

[ask] Is 80% strictly greater than the compound's reported Activity? compound: COC(=O)c1ccc(C2C(C(=O)c3cccnc3)=C(O)C(=O)N2CCc2c[nH]c3cc(F)ccc23)cc1 (configuration not stated)
[reply] class 1

[ask] Is 80% strictly greater than the compound's reported Activity? compound: COC(=O)c1ccc(C2C(C(=O)c3ccncc3)=C(O)C(=O)N2CCc2cccc3ccccc23)cc1 (configuration not stated)
[reply] class 1

[ask] Is 80% strictly greater than the compound's reported Activity? compound: COC(=O)c1ccc(C2C(C(C)=O)=C(OC)C(=O)N2CCc2c[nH]c3ccccc23)cc1 (configuration not stated)
[reply] class 0

[ask] Is 80% strictly greater than the compound's reported Activity? compound: CNS(=O)(=O)c1ccc(C2C(C(=O)c3cccnc3)=C(O)C(=O)N2CCc2c[nH]c3ccccc23)cc1 (configuration not stated)
[reply] class 0

[ask] Is 80% strictly greater than the compound's reported Activity? compound: COC(=O)c1ccc(C2C(C(C)=O)=C(O)C(=O)N2CCc2c[nH]c3ccccc23)c(OC)c1 (configuration not stated)
[reply] class 0

[ask] Is 80% strictly greater than the compound's reported Activity? compound: COC(=O)c1ccc(C2C(C(C)=O)=C(O)C(=O)N2CCc2c[nH]c3ccccc23)cc1C (configuration not stated)
[reply] class 0

[ask] Is 80% strictly greater than the compound's reported Activity? compound: COC(=O)c1ccc(C2C(C(=O)c3cccnc3)=C(O)C(=O)N2CCCc2c[nH]c3ccccc23)cc1 (configuration not stated)
[reply] class 0

[ask] Is 80% strictly greater than the compound's reported Activity? compound: COC(=O)c1ccc(C2C(C(C)=O)=C(N)C(=O)N2CCc2c[nH]c3ccccc23)cc1 (configuration not stated)
[reply] class 0

[ask] Is 80% strictly greater than the compound's reported Activity? compound: CCOC(=O)c1ccc(C2C(C(=O)c3cccnc3)=C(O)C(=O)N2CCc2c[nH]c3ccccc23)cc1 (configuration not stated)
[reply] class 1

[ask] Is 80% strictly greater than the compound's reported Activity? compound: COC(=O)c1ccc(C2C(C(=O)C(C)(C)C)=C(O)C(=O)N2CCc2c[nH]c3ccccc23)cc1 (configuration not stated)
[reply] class 0

[ask] Is 80% strictly greater than the compound's reported Activity? compound: COC(=O)c1ccc(C2C(C(=O)c3cccc(O)c3)=C(O)C(=O)N2CCc2c[nH]c3ccccc23)cc1 (configuration not stated)
[reply] class 1

[ask] Is 80% strictly greater than the compound's reported Activity? compound: COC(=O)c1ccc(C2C(C(=O)c3cccc(C)c3)=C(O)C(=O)N2CCc2c[nH]c3ccccc23)cc1 (configuration not stated)
[reply] class 0

----------
Provide the recorded Activity for the entries that follow.
Target: Glutamate NMDA receptor; Grin1/Grin2b (Rattus norvegicus) (UniProt P35439+Q00960)
Assay: Potentiation of rat recombinant GluN1/GluN2B expressed in Xenopus laevis oocytes assessed as increase in glutamate/glycine-induced current response at 30 uM by two-electrode voltage clamp technique relative to control
Type: cell-based
Write it as a number; the unit % goes unstated.

[ask] So what's the measured Activity for this one? COC(=O)c1ccc(C2C(C(C)=O)=C(O)C(=O)N2CCc2c[nH]c3ccccc23)c(C)c1 (stereo not drawn)
[reply] 95

[ask] So what's the measured Activity for this one? COC(=O)c1ccc(C2C(C(=O)c3cccnc3)=C(O)C(=O)N2CCc2cn(C)c3ccccc23)cc1 (stereo not drawn)
[reply] 87

[ask] So what's the measured Activity for this one? COC(=O)c1ccc(C2C(C(C)=O)=C(O)C(=O)N2CCc2c[nH]c3c(C)cccc23)cc1 (stereo not drawn)
[reply] 81

[ask] So what's the measured Activity for this one? CNC(=O)c1ccc(C2C(C(=O)c3cccnc3)=C(O)C(=O)N2CCc2c[nH]c3ccccc23)cc1 (stereo not drawn)
[reply] 105

[ask] So what's the measured Activity for this one? COC(=O)c1ccc(C2C(C(C)=O)=C(O)C(=O)N2CCc2c(C)[nH]c3ccccc23)cc1 (racemic)
[reply] 88

[ask] So what's the measured Activity for this one? CCOC(=O)c1ccc(C2C(C(C)=O)=C(O)C(=O)N2CCc2c[nH]c3ccccc23)cc1 (stereo not drawn)
[reply] 83

[ask] So what's the measured Activity for this one? CCOC(=O)c1ccc(C2C(C(C)=O)=C(O)C(=O)N2CCc2c(C)[nH]c3ccccc23)cc1 (stereo not drawn)
[reply] 99

[ask] So what's the measured Activity for this one? COC(=O)c1ccc(C2C(C(C)=O)=C(O)C(=O)N2CCc2c[nH]c3ccccc23)c(O)c1 (stereo not drawn)
[reply] 86

----------
Biological target: Ionotropic glutamate receptor NMDA 1/2D (Rattus norvegicus) (UniProt P35439+Q62645)
Experiment: Potentiation of rat recombinant GluN1/GluN2D expressed in Xenopus laevis oocytes assessed as increase in glutamate/glycine-induced current response at 30 uM by two-electrode voltage clamp technique relative to control
Assay type: cell-based
Provide the recorded Activity for the entries that follow.
Write it as a number; the unit % goes unstated.

[ask] So what's the measured Activity for this one? NS(=O)(=O)c1ccc(C2C(C(=O)c3cccnc3)=C(O)C(=O)N2CCc2c[nH]c3ccccc23)cc1 (stereo unspecified)
[reply] 83

[ask] So what's the measured Activity for this one? COC(=O)c1ccc(C2C(C(=O)c3ccccc3)=C(O)C(=O)N2CCc2c[nH]c3ccccc23)cc1 (stereo unspecified)
[reply] 79

[ask] So what's the measured Activity for this one? COC(=O)c1ccc(C2C(C(C)=O)=C(O)C(=O)N2CCc2c[nH]c3ccccc23)c(Cl)c1 (stereo unspecified)
[reply] 90

[ask] So what's the measured Activity for this one? COC(=O)c1ccc(C2C(C(C)=O)=C(N)C(=O)N2CCc2c[nH]c3ccccc23)cc1 (stereo unspecified)
[reply] 75

[ask] So what's the measured Activity for this one? COC(=O)c1ccc(C2C(C(=O)c3cccnc3)=C(O)C(=O)N2CCc2c[nH]c3cc(F)ccc23)cc1 (stereo unspecified)
[reply] 82

[ask] So what's the measured Activity for this one? COC(=O)c1ccc(C2C(C(=O)c3cccnc3)=C(O)C(=O)N2CCc2c[nH]c3c(Cl)cccc23)cc1 (stereo unspecified)
[reply] 78

[ask] So what's the measured Activity for this one? COC(=O)c1ccc(C2C(C(C)=O)=C(O)C(=O)N2CCc2c[nH]c3ccccc23)c(OC)c1 (stereo unspecified)
[reply] 100

[ask] So what's the measured Activity for this one? COC(=O)c1ccc(C2C(C(=O)c3cccnc3)=C(O)C(=O)N2CCc2c[nH]c3cc(C)ccc23)cc1 (stereo unspecified)
[reply] 86

[ask] So what's the measured Activity for this one? COC(=O)c1ccc(C2C(C(C)=O)=C(OC)C(=O)N2CCc2c[nH]c3ccccc23)cc1 (stereo unspecified)
[reply] 82

[ask] So what's the measured Activity for this one? CC(=O)C1=C(O)C(=O)N(CCc2c[nH]c3ccccc23)C1c1ccc(C(=O)O)cc1 (stereo unspecified)
[reply] 88

[ask] So what's the measured Activity for this one? COC(=O)c1ccc(C2C(C(=O)c3cccc(Cl)c3)=C(O)C(=O)N2CCc2c[nH]c3ccccc23)cc1 (stereo unspecified)
[reply] 83

[ask] So what's the measured Activity for this one? COC(=O)c1ccc(C2C(C(=O)c3cccnc3)=C(O)C(=O)N2CCc2c(C)[nH]c3ccccc23)cc1 (stereo unspecified)
[reply] 82

[ask] So what's the measured Activity for this one? COC(=O)c1ccc(C2C(C(C)=O)=C(O)C(=O)N2CCc2c[nH]c3ccccc23)cc1OC (stereo unspecified)
[reply] 86

[ask] So what's the measured Activity for this one? COC(=O)c1ccc(C2C(C(=O)c3cccc(OC)c3)=C(O)C(=O)N2CCc2c[nH]c3ccccc23)cc1 (stereo unspecified)
[reply] 80

[ask] So what's the measured Activity for this one? COC(=O)c1ccc(C2C(C(=O)c3ccncc3)=C(O)C(=O)N2Cc2c[nH]c3ccccc23)cc1 (stereo unspecified)
[reply] 87

[ask] So what's the measured Activity for this one? CNS(=O)(=O)c1ccc(C2C(C(=O)c3cccnc3)=C(O)C(=O)N2CCc2c[nH]c3ccccc23)cc1 (stereo unspecified)
[reply] 73

[ask] So what's the measured Activity for this one? CCC(=O)C1=C(O)C(=O)N(CCc2c[nH]c3ccccc23)C1c1ccc(C(=O)OC)cc1 (stereo unspecified)
[reply] 78

[ask] So what's the measured Activity for this one? CCOC(=O)c1ccc(C2C(C(=O)c3cccnc3)=C(O)C(=O)N2CCc2c[nH]c3ccccc23)cc1 (stereo unspecified)
[reply] 83

[ask] So what's the measured Activity for this one? COC(=O)c1ccc(C2C(C(=O)c3cccnc3)=C(O)C(=O)N2CCc2c[nH]c3ccc(OC)cc23)cc1 (stereo unspecified)
[reply] 91

[ask] So what's the measured Activity for this one? COC(=O)c1ccc(C2C(C(C)=O)=C(O)C(=O)N2CCc2c[nH]c3ccccc23)c(O)c1 (stereo unspecified)
[reply] 88

[ask] So what's the measured Activity for this one? CC(=O)C1=C(O)C(=O)N(CCc2c[nH]c3ccccc23)C1c1ccc(C(=O)OC(C)C)cc1 (stereo unspecified)
[reply] 83
